The following molecules are listed with their measured CARBON DIOXIDE values.
- Species on record: Rattus norvegicus
- measurement notes: DrugMatrix - Regimen: Daily Repeat
- Format: toxicity, organism-based, Sprague-Dawley
- Parameters: regimen Daily Repeat, gender Male, age 6-8 weeks
- measurement parameters: in vivo, po, 0 mg/kg, 120 h, tissue Plasma, route oral GAVAGE, dose level Control, time 5 day, vehicle 100 % SALINE
Write it as a number; the unit mmol/L goes unstated.

The cases that follow already have their CARBON DIOXIDE on record.
[
  {
    "molecule": "CCCc1nn(C)c2c(=O)[nH]c(-c3cc(S(=O)(=O)N4CCN(C)CC4)ccc3OCC)nc12",
    "uom": "mmol/L",
    "CARBON DIOXIDE": 29.67
  },
  {
    "molecule": "CC(=O)OCC(CCn1cnc2cnc(N)nc21)COC(C)=O [FAMCICLOVIR]",
    "uom": "mmol/L",
    "CARBON DIOXIDE": 29.67
  }
]

stdin: Could you share which CARBON DIOXIDE value was measured for Cc1cc(CC(=O)O)n(C)c1C(=O)c1ccc(Cl)cc1 [ZOMEPIRAC] ?
stdout: 24

stdin: Could you share which CARBON DIOXIDE value was measured for Oc1ccccc1O [CATECHOL] ?
stdout: 24
